# Test system: Pseudomonas aeruginosa
# EXPERIMENTAL DETAILS: Antibacterial activity against Pseudomonas aeruginosa ATCC 9027
# Format: functional
PROPERTY NAME: MIC (mg/L)
Give your result in mg/L as a bare value.

Some entries whose results are on file:
COMPOUND: CCn1cc(C(=O)O)c(=O)c2cc(F)c(N3CCNCC3)cc21
MIC (mg/L): 8
--
COMPOUND: O=C(/C=C/C(=O)NC1Cc2ccccc2NC1=O)Nc1ccccc1 (stereo not given)
MIC (mg/L): 256
--
COMPOUND: O=C(/C=C/C(=O)NC1Cc2ccccc2NC1=O)Nc1ccccc1[N+](=O)[O-] (stereo not given)
MIC (mg/L): 256
--
COMPOUND: O=C(/C=C/C(=O)NC1Cc2ccccc2NC1=O)Nc1ccccc1F (stereo not given)
MIC (mg/L): 512

Give a short answer stating reported MIC for O=C(/C=C/C(=O)NC1Cc2ccccc2NC1=O)Nc1ccccc1Cl (stereo not given) .
256

Give a short answer stating reported MIC for Cc1ccc(NC(=O)/C=C/C(=O)NC2Cc3ccccc3NC2=O)cc1 (stereo not given) .
512

Give a short answer stating reported MIC for COc1ccccc1NC(=O)/C=C/C(=O)NC1Cc2ccccc2NC1=O (stereo not given) .
512

Give a short answer stating reported MIC for O=C(/C=C/C(=O)NC1Cc2ccccc2NC1=O)Nc1ccc(F)cc1 (stereo not given) .
256

Give a short answer stating reported MIC for COc1ccc(NC(=O)/C=C/C(=O)NC2Cc3ccccc3NC2=O)cc1 (stereo not given) .
512

Give a short answer stating reported MIC for O=C(/C=C/C(=O)NC1Cc2ccccc2NC1=O)Nc1cccc2ccccc12 (stereo not given) .
256

----------
# System: Cryptococcus neoformans
# EXPERIMENTAL DETAILS: Antifungal activity against Cryptococcus neoformans ATCC 32719 incubated for 48 hrs by two-fold broth dilution analysis
# Format: functional
PROPERTY NAME: MIC (µg/mL)
Give your result in µg/mL as a bare value.

MOLECULE: Cc1cccc(NC(=O)/C=C/C(=O)NC2Cc3ccccc3NC2=O)c1 (configuration not stated)
MIC (µg/mL): 64
//
MOLECULE: O=C(/C=C/C(=O)NC1Cc2ccccc2NC1=O)Nc1ccc(Cl)cc1 (configuration not stated)
MIC (µg/mL): 4
//
MOLECULE: O=C(/C=C/C(=O)NC1Cc2ccccc2NC1=O)Nc1cccc([N+](=O)[O-])c1 (configuration not stated)
MIC (µg/mL): 4
//
MOLECULE: O=C(/C=C/C(=O)NC1Cc2ccccc2NC1=O)Nc1ccccc1F (configuration not stated)
MIC (µg/mL): 16
//
MOLECULE: COc1ccccc1NC(=O)/C=C/C(=O)NC1Cc2ccccc2NC1=O (configuration not stated)
MIC (µg/mL): 8

Given O=C(/C=C/C(=O)NC1Cc2ccccc2NC1=O)Nc1ccccc1Br (configuration not stated) , report its MIC on Cryptococcus neoformans.
32

Given Cc1ccccc1NC(=O)/C=C/C(=O)NC1Cc2ccccc2NC1=O (configuration not stated) , report its MIC on Cryptococcus neoformans.
16

----------
# Test system: Staphylococcus aureus
# EXPERIMENTAL DETAILS: Antibacterial activity against Staphylococcus aureus ATCC 25923
# Type: functional
The molecules listed here are annotated with their MIC.
Give your result in µg/mL as a bare value.

Some entries whose results are on file:
MOLECULE: CCn1cc(C(=O)O)c(=O)c2cc(F)c(N3CCNCC3)cc21
ENDPOINT RESULT: 2
--
MOLECULE: O=C(/C=C/C(=O)NC1Cc2ccccc2NC1=O)Nc1ccc(Cl)cc1 (stereo unspecified)
ENDPOINT RESULT: 128
--
MOLECULE: O=C(/C=C/C(=O)NC1Cc2ccccc2NC1=O)Nc1ccc([N+](=O)[O-])cc1 (stereo unspecified)
ENDPOINT RESULT: 128
--
MOLECULE: O=C(/C=C/C(=O)NC1Cc2ccccc2NC1=O)Nc1ccc(F)cc1 (stereo unspecified)
ENDPOINT RESULT: 128
--
MOLECULE: CN[C@@H]1[C@H](O[C@H]2[C@H](O[C@H]3[C@H](O)[C@@H](O)[C@H](N=C(N)N)[C@@H](O)[C@@H]3N=C(N)N)O[C@@H](C)[C@]2(O)C=O)O[C@@H](CO)[C@H](O)[C@H]1O
ENDPOINT RESULT: 32

# context switch: different molecule, same MIC
Given O=C(/C=C/C(=O)NC1Cc2ccccc2NC1=O)Nc1ccc(F)c(F)c1 (stereo unspecified) , report its MIC on Staphylococcus aureus.
256

Values compiled from ChEMBL document CHEMBL4765291.
